Each recorded value in this set is attributed to BigSolDB 2.1.

Conditions: in ethanol, 303.15 K
REPORTED_METRIC: solubility (mole fraction)

[[record]]
smiles_text = "Cc1cnc(NC(=O)C2=C(O)c3ccccc3S(=O)(=O)N2C)s1"
reported_metric = "solubility (mole fraction)"
meas_value = "7.52e-05"


----------
Settings: in ethanol, 298.15 K
REPORTED_METRIC: solubility (mole fraction)

[[record]]
smiles_text = "Cc1cnc(NC(=O)C2=C(O)c3ccccc3S(=O)(=O)N2C)s1"
meas_value = "5.67e-05"


----------
Conditions: in ethanol, 308.15 K
REPORTED_METRIC: solubility (mole fraction)

[[record]]
smiles_text = "Cc1cnc(NC(=O)C2=C(O)c3ccccc3S(=O)(=O)N2C)s1"
meas_value = "9.37e-05"

